Measured values drawn from PubChem BioAssay (NCI) for this set.

Reported TGI values follow for various molecules
Test system: LOX IMVI melanoma
Assay: NCI tumour cell line growth inhibition, 48 h
Please state the figure in µM; there is no need to write the unit.

> print(dat)
                                 smiles.str       study.system  unit.descriptor  number
1  CC(C)(C)O/N=C/c1cc(NC(=S)c2ccccc2)ccc1Cl  LOX IMVI melanoma               µM    30.4

Now for the molecule whose TGI we want.
According to the records, this molecule Nc1nc(Cl)c2ncn(Cc3ccc(C45CC6CC(CC(C6)C4)C5)c(OCc4cc(F)c(F)cc4F)c3)c2n1 displays TGI of 8.64

====

Test system: KM20L2 colon
Experiment: NCI tumour cell line growth inhibition, 48 h
Reported TGI values follow for various molecules

Solved entries (count: 4):
Molecule	Measured Metric	Result
COCOC1CCCC[C@@]1(OCCOCCO[C@@]1(c2ccccc2)CCCC[C@H]1OCOC)c1ccccc1 (stereo not given in full)	TGI	> 100 µM
Cc1nc2sccn2c1C(=O)NNC(N)=S	TGI	> 100 µM
COc1cccc(/C=N/[N-]C(N)=O)c1[O-].[Cu+2].[OH3+]	TGI	20.6 µM
N#Cc1c(-c2ccccc2)c(-c2ccccc2)cc2c(=O)c3ccc(Cl)cc3[nH]c12	TGI	> 100 µM

According to the records, this molecule CN1C(c2ccccc2)CC(O)CC1c1ccccc1 (stereo not given) displays TGI of > 100 µM

According to the records, this molecule Cc1ccc(-n2nc(C(OC3OC(CO)C(O)C(O)C3O)C(O)CO)c3nc4cc(C)c(C)cc4nc32)cc1 (stereo not given) displays TGI of > 100 µM

According to the records, this molecule CCCC(O)[C@@]1(CC)CC(C)C(O)(C2(C)C[C@H](C)[C@@H](C(CC)C(=O)C(C)[C@@H](O)[C@H](C)C3OC(O)(C(CC)C(=O)O)[C@@H](C)C(O)C3CC)O2)O1 (stereo not given in full) displays TGI of 4.13 µM

According to the records, this molecule O=C1C=CC2(CCC23C=CC(=O)O3)O1 (stereo not given) displays TGI of > 100 µM

According to the records, this molecule CCCCCCCCCCCCCCCC(=O)OCC1OC(n2cc(F)c(=O)[nH]c2=O)C(NC(=O)OCc2ccccc2)C(O)C1O (stereo not given) displays TGI of 41.9 µM

According to the records, this molecule C/C(=N\NC(=S)N1CCC1)c1ccccn1 displays TGI of > 100 µM

====

Reported GI50 values follow for various molecules
Test system: K-562 leukemia
Experiment: NCI tumour cell line growth inhibition, 48 h

Solved entries (count: 3):
> print(dat)
                                 smiles.str    result
1  COc1cccc(-c2cc(=O)c3cc(N4CCN(C)CC4)ccc3[nH]2)c1  0.492 µM
2  CCOC(=O)c1cn(C)c2c(OC)c3ccccc3c(OC)c2c1=O   36.4 µM
3  Cc1ccc(C(=O)Nc2ccc(Oc3cc4cnn(C)c4cc3-c3cn[nH]c3)c(F)c2)c(=O)n1-c1ccc(F)cc1   5.75 µM

According to the records, this molecule O=C(O)c1ccccc1NCn1nc(-c2ccccc2O)oc1=S displays GI50 of 70.9 µM

According to the records, this molecule Cn1cc(-c2ccc3ncc(-c4ccc(CC(=O)Nc5cc(C(C)(C)C)nn5C)cc4)cc3c2)cn1 displays GI50 of 1.13 µM

====

Reported GI50 values follow for various compounds
System: HL-60(TB) leukemia
Experiment: NCI tumour cell line growth inhibition, 48 h

Record O=C1c2ccccc2-c2c1c1ccccc1c(=O)n2CCCNCCNCCCn1c2c(c3ccccc3c1=O)C(=O)c1ccccc1-2 / HL-60(TB) leukemia, GI50 recorded as 3510 nM

Record Nc1ncnc2c1c(-c1ccc(Oc3ccccc3)cc1)nn2CC1SSCC1O (centres undefined) / HL-60(TB) leukemia, GI50 recorded as 1490 nM

Record O=c1[nH]c(=S)[nH]c(O)c1/C=C1\C=Nc2ccccc21 / HL-60(TB) leukemia, GI50 recorded as 2650 nM

Record COc1cccc(-c2cc(=O)c3cc(N4CCN(C)CC4)ccc3[nH]2)c1 / HL-60(TB) leukemia, GI50 recorded as 410 nM

Record COc1cccc(/C=N/[N-]C(N)=O)c1[O-].[Cu+2].[OH3+] / HL-60(TB) leukemia, GI50 recorded as 10800 nM

====

Test system: MDA-MB-435
A correct response names exactly one class from active, inactive

> print(dat)
                                   molecule  class.assignment
1  NC(=O)c1nc(-c2c(F)cccc2Cl)oc1Nc1ccc(C(=O)N2CCOCC2)cc1          inactive
2  CC(=O)Nc1cccc(C#Cc2cncnc2Nc2ccc(OCc3cccc(F)c3)c(Cl)c2)c1          inactive
3  COc1cccc(-c2cc(=O)c3cc(N4CCN(C)CC4)ccc3[nH]2)c1            active
4     O=C(O)c1ccccc1NCn1nc(-c2ccccc2O)oc1=S          inactive
5  Cc1ccccc1Nc1cc(O)c2c(=O)cc(-c3ccccc3)oc2c1            active
6  N#CN1CC[C@H](C(=O)Nc2ncc(-c3ccccc3)s2)C1            active
7  CN(C)CCCOc1ccc(NC2=C(Cl)C(=O)C(Nc3ccc(OCCCN(C)C)cc3)=C(Cl)C2=O)cc1          inactive
8   NCCCNc1nc2ccccc2c2c(=O)c3cc(Cl)ccc3sc12          inactive

Then this molecule:
Returns: the outcome recorded for OCCNc1nc2ccccc2c2[nH]c3ccccc3c12 in this assay.
inactive

====

Tested on: SK-MEL-2 melanoma
Assay: NCI tumour cell line growth inhibition, 48 h
Reported TGI values follow for various compounds

Solved entries (count: 5):
> print(dat)
                                   compound       study.system  measured.metric     result
1  CCN(CC)CCCC(Nc1c2ccc(Cl)cc2nc2ccc(OC)cc12)c1ccc(Cl)cc1 (stereo unspecified)  SK-MEL-2 melanoma              TGI    3.63 µM
2  CCOC(=O)[C@@H](C)C[C@H](Cc1ccccc1)NC(=O)c1csc([C@@H](C[C@H](C(C)C)N(C)C(=O)CNC(=O)[C@H]2CCCCN2C)OC(C)=O)n1  SK-MEL-2 melanoma              TGI  > 14.3 µM
3  COc1c(OC2OC(CO)C(O)C(O)C2O)cc2c(c1OC)-c1ccc(OC)c(=O)cc1C(NC(C)=O)CC2 (stereo unspecified)  SK-MEL-2 melanoma              TGI   > 100 µM
4  O=C(OCCN=c1c2ccccc2ccc2ccccc12)c1cc([N+](=O)[O-])cc([N+](=O)[O-])c1  SK-MEL-2 melanoma              TGI   > 100 µM
5  Cc1cc(NC(=O)NC(=O)c2ccccc2NC(=O)CN(C)C)ccc1Oc1ncc(Br)cn1  SK-MEL-2 melanoma              TGI  > 85.1 µM

According to the records, this compound O=C([O-])c1ccc([I+]c2ccccc2)cc1 displays TGI of > 100 µM

According to the records, this compound CN(Cc1cnc2nc(N)nc(N)c2n1)c1ccc(C(=O)NC(CCC(=O)O)C(=O)O)c2ccccc12 (stereo unspecified) displays TGI of > 1000 µM

According to the records, this compound O=C1Nc2ccc(-c3cccnc3)cc2/C1=C/c1cc(Br)c(O)c(Br)c1 displays TGI of 6.85 µM

====

Reported TGI values follow for various molecules
Test system: MDA-MB-231 breast
Assay: NCI tumour cell line growth inhibition, 48 h
Please state the figure in µM; there is no need to write the unit.

According to the records, this molecule C/C(=C/CCC(C)[C@@H]1CC[C@]2(C)C3=C(CC[C@@]12C)[C@@]1(C)CCC(=O)C(C)(C)[C@@H]1CC3)C(=O)O (stereo not given in full) displays TGI of 3.15

According to the records, this molecule CC1(C)CCC[C@@]2(C)C1CC[C@@]1(CO)O[C@H](C3=CC(=O)OC3O)C[C@H]12 (stereo not given in full) displays TGI of 36.1

According to the records, this molecule COC1=C(OC)C(=O)C(Cc2c(Cl)nc3sccn23)=C(C)C1=O displays TGI of 8.28

According to the records, this molecule O=c1[nH]c(=S)[nH]c(O)c1/C=C1\C=Nc2ccccc21 displays TGI of 33.6

According to the records, this molecule BrC1(c2ccccc2)C[n+]2c(-c3ccccc3)cc(-c3ccccc3)cc2-c2ccccc21 (stereo not given) displays TGI of 1.63

====

Test system: T-47D breast
Assay: NCI tumour cell line growth inhibition, 48 h; in the data active = GI50 below about 0.43 µM; inactive = the rest
A correct response names exactly one class from active, inactive

> print(dat)
                                   molecule  study.system  class.assignment
1  COc1ccc(-c2cnc(-c3ccncc3-c3cccc(OC)c3)o2)cc1  T-47D breast          inactive
2  O=C(CCCCN1CCN(CCCCC(=O)Nc2ccccc2C#C/C=C\C#Cc2ccccc2C(F)(F)F)CC1)Nc1ccccc1C#C/C=C\C#Cc1ccccc1C(F)(F)F  T-47D breast          inactive
3  CCN(CC)CCCC(Nc1c2ccc(Cl)cc2nc2ccc(OC)cc12)c1ccc(Cl)cc1 (stereo unspecified)  T-47D breast          inactive
4  Nc1c(C(=O)Nc2ccccc2)sc2nc3c(cc12)C(=O)CCC3  T-47D breast          inactive
5  N#CN1CC[C@H](C(=O)Nc2ncc(-c3ccccc3)s2)C1  T-47D breast          inactive
6  O=c1[nH]c(=S)[nH]c(O)c1/C=C1\C=Nc2ccccc21  T-47D breast          inactive

Returns: the outcome recorded for Cc1ccc2ccc3c4ccccc4ccc3c2c1 in this assay.
inactive

Returns: the outcome recorded for COC(=O)[C@]12CC[C@@H](C)[C@H](C)[C@@H]1C1=CC[C@@H]3[C@@]4(C)C(C=O)=C[C@@](C)(COS(C)(=O)=O)C4=CC[C@@]3(C)[C@]1(C)CC2 in this assay.
active

Returns: the outcome recorded for Cn1cc(-c2ccc3ncc(-c4ccc(CC(=O)Nc5cc(C(C)(C)C)nn5C)cc4)cc3c2)cn1 in this assay.
inactive

Returns: the outcome recorded for O=C(Nc1ccc(-n2cc(-c3ccncc3)c(-c3ccc(O)c(Cl)c3)n2)cc1)Nc1cc(C(F)(F)F)cc(C(F)(F)F)c1 in this assay.
inactive

Returns: the outcome recorded for S=C(Sc1ccc(Cl)cc1)Sc1ccc(Cl)cc1 in this assay.
inactive
